target: THOC4 (ALYREF) (UniProt Q86V81 Q86V81:2-257); test: SPR; LSA_In3E3 = 1
Experimental endpoint: binding signal (normalized Rmax)
Answers are plain numbers, in normalized Rmax.

Answered cases to consult:
Sure, the documented binding signal for CAGAGGCAGCAGUACGACGG (ssRNA, PS all, no sugar modification) [LSA_ATG PS only (DKLS577569)] is 1.03

Sure, the documented binding signal for CCAGACAGCUGGUGUCGCCU (ssRNA, 2'-OMe all, PS all) [In3LSA_scr3_5] is 0.43

Sure, the documented binding signal for CCAGUGAGCCGGACUU (ssRNA, 2'-OMe all, PS all) [In3E3 3' truncation 16 nt] is 0.38

Sure, the documented binding signal for GAGCCGGACUUGCCU (ssRNA, 2'-OMe all, PS all) [In3E3 5' truncation 15 nt] is 0.45

Sure, the documented binding signal for CCAGUGAGCCGGACUUGCC (ssRNA, 2'-OMe all, PS all) [In3E3 3' truncation 19 nt] is 0.9

// batch mode: one binding signal value per listed entry
1. GUGAGCCGGACUUG (ssRNA, 2'-OMe all, PS all) [In3E3 both-end truncation 14 nt]
2. AGCCGGAC (ssRNA, 2'-OMe all, PS all [2'-OMe at 1-8 (all); PS at all linkages]) [In3E3 both-end truncation 8 nt]
3. GGACUUGCCU (ssRNA, 2'-OMe all, PS all) [In3E3 5' truncation 10 nt]
4. GUGCAUGGAAUCACGGAGUGGUGCAUGGAA (ssRNA, 2'-OMe all, PS all) [Open_A 30-mer (DKLS722361)]
5. CAGAGGCAGCAGUACGACGGCAGAGGCAGC (ssRNA, 2'-OMe all, PS all) [LSA_ATG 30-mer (DKLS428543)]
6. CCAGUGAGCCGGACUUG (ssRNA, 2'-OMe all, PS all) [In3E3 3' truncation 17 nt]
7. GUGAGCCGGACUUGCCU (ssRNA, 2'-OMe all, PS all) [In3E3 5' truncation 17 nt]

Resp:
[0.48, -0.07, -0.01, 1.53, 1.21, 0.69, 0.23]

Sure, the documented binding signal for CCAGUGAGCCGGACUUGC (ssRNA, 2'-OMe all, PS all) [In3E3 3' truncation 18 nt] is 0.87
